Entry source: patent US10287267B2

molecular target: recombinant DYRK1A kinase (Homo sapiens (Human), UniProt Q13627); assay: DYRK1A kinase assay (Ser/Thr 18 peptide Z-lyte FRET); conditions: 30 μM ATP, 1 h room temperature;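 also: Read-out is the coumarin to fluorescein emission ratio, referenced to unphosphorylated (0%) and phosphorylated (100%) Ser/Thr 18 peptide controls, values from dose-response curves by non-linear regression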
pEC50: −log10 of the molar value.
Property: pEC50; scope: individual molecules
value.kind: pEC50

>>> test_result("CC(C)CN1CCC(C(=O)Nc2cc3cc(-c4cncn4C)ccc3cn2)CC1")
8.85
>>> test_result("CC(C)N1CCN(CC(=O)Nc2cc3cc(-c4cnn(C)c4)ccc3cn2)CC1")
7.67
>>> test_result("Cn1cc(-c2ccc3cnc(NC(=O)CN4CC5CC5C4)cc3c2)cn1 (centres unmarked)")
8.09
>>> test_result("Cc1nnc(-c2ccc3cnc(NC(=O)CN4C5CCC4COC5)cc3c2)s1")
7.63
>>> test_result("[2H]C([2H])([2H])n1cc(-c2ccc3cnc(NC(=O)C4CCN(CCC(F)(F)F)CC4)cc3c2)cn1")
8.57
